test: qHTS assay to identify small molecule agonists of H2AX - cell viability counter screen (AID 1224847); further: nearly all actives have a fitted effect of over 30% in size
test settings: CHO-K1 viability, CellTiter-Glo luminescence, 3 h; series mostly up to 154 µM
Records with an inconclusive call do not appear. The source made the active and inactive calls. The call rests on the fitted dose curve.
Outcome codes: active, inactive

In [3]: df
Out[3]:
                                    compound  class_label
 0        Oc1ccc([C@H]2CNCc3c2ccc(O)c3O)cc1O     inactive
 1  CCCCCCC[CH2][Sn]([Cl])([Cl])[CH2]CCCCCCC     inactive
 2               COC(=O)/C=C(\C)OP(=O)(OC)OC     inactive
 3                        CCCCCCCc1ccc(O)cc1       active
 4  Fc1ccc(C(OCCN2CCN(CCCc3ccccc3)CC2)c2ccc(F)cc2)cc1       active
 5                COc1c2c(cc3c1OCO3)CCN(C)C2     inactive
 6  CN1C2CCC(C)(C)C1CC(OC(=O)C(O)(c1cccs1)c1cccs1)C2 (stereo unspecified)     inactive
 7  CCCC[N+]1(C)CCCC1 (tested in a mixture with another compound)     inactive
 8     COP(=S)(OC)Oc1ccc([N+](=O)[O-])c(C)c1     inactive
 9                            ClSC(Cl)(Cl)Cl     inactive
10  [O]=[Cr](=[O])([OH])[O][Cr](=[O])(=[O])[OH]       active
11  CC(Cc1ccc2c(c1)OCO2)NO (stereo unspecified)     inactive
12  CC(Cc1ccc(O)cc1)NCC(O)c1cc(O)cc(O)c1 (stereo unspecified)     inactive
13                           Oc1cccc(Cl)c1Cl     inactive
14                   O=c1[nH]c(Cl)c(Cl)cc1Cl     inactive
15            O=C1C(Cl)=C(Cl)C(=O)C(Cl)=C1Cl     inactive

Hello, the source for this data is PubChem BioAssay (Tox21), in case you need it.
